# target.of.assay: T1, solubilised human IR-A (semipurified by wheat germ agglutinin chromatography from baby hamster kidney (BHK) … (human, UniProt P06213-2 28-1370))
# T1 construct: mature; Detergent-solubilised holoreceptor captured by anti-IR mouse antibody 83-7 on SPA beads; the precursor is processed into alpha and beta chains; also called hIRA; human insulin receptor (IR), A isoform
# assay.details: SPA competition vs [125I-A14Y]-human insulin, solubilised hIR-A, 1.5% HSA
measured.endpoint: relative binding affinity (% rel to HI)

1) A8R, A22K(N(eps)tetradecanedioyl-4xgGlu), B3E, B26E, B28E, B29R, desB30 human insulin (ligand, not fully specified; Lys A22 acylated on N(eps) with tetradecanedioyl-4xgGlu, Two-chain acylated insulin analogue; also called Ex. No. 23) chain 1: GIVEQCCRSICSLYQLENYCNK chain 2: FVEQHLCGSHLVEALYLVCGERGFFETER: 182 % rel to HI
2) A14E, A22K(N(eps)hexadecanedioyl-gGlu-2xOEG), B3E, B27E, B28E, B29R, desB30 human insulin (ligand, not fully specified; Lys A22 acylated on N(eps) with hexadecanedioyl-gGlu-2xOEG, Two-chain acylated insulin analogue; also called Ex. No. 26) chain 1: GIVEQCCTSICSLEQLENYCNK chain 2: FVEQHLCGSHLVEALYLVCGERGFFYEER: 7.4 % rel to HI
3) A8R, A22K(N(eps)tetradecanedioyl-4xgGlu), B3E, B26E, B29R, desB30 human insulin (ligand, not fully specified; Lys A22 acylated on N(eps) with tetradecanedioyl-4xgGlu, Two-chain acylated insulin analogue; also called Ex. No. 15) chain 1: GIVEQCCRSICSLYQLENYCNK chain 2: FVEQHLCGSHLVEALYLVCGERGFFETPR: 237 % rel to HI
4) A8R, A22K(N(eps)tetradecanedioyl-4xgGlu), B3E, B26E, B27E, B28R, desB29, desB30 human insulin (ligand, not fully specified; Lys A22 acylated on N(eps) with tetradecanedioyl-4xgGlu, Two-chain acylated insulin analogue; also called Ex. No. 19) chain 1: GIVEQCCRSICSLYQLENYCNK chain 2: FVEQHLCGSHLVEALYLVCGERGFFEER: 188 % rel to HI
5) A8R, A22K(N(eps)tetradecanedioyl-4xgGlu), B3E, B26E, B27P, B28R, desB29, desB30 human insulin (ligand, not fully specified; Lys A22 acylated on N(eps) with tetradecanedioyl-4xgGlu, also called Ex. No. 16) chain 1: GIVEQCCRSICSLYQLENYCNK chain 2: FVEQHLCGSHLVEALYLVCGERGFFEPR: 229 % rel to HI

Given the binder A14E, A22K(N(eps)tetradecanedioyl-gGlu-2xOEG), B3E, B27E, B28E, B29R, desB30 human insulin (ligand, not fully specified; Lys A22 acylated on N(eps) with tetradecanedioyl-gGlu-2xOEG, Two-chain acylated insulin analogue; also called Ex. No. 2) chain 1: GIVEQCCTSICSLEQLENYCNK chain 2: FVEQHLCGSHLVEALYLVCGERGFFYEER , what is its reported relative binding affinity (% rel to HI)? 38.9 % rel to HI
